biological target: T1, CD71 apical domain (human, UniProt P02786 189-383, limits assumed); assay: solution ELISA screen (luminescence)
T1 construct: domain: apical domain
T1 sequence (P02786 189-383 limits assumed): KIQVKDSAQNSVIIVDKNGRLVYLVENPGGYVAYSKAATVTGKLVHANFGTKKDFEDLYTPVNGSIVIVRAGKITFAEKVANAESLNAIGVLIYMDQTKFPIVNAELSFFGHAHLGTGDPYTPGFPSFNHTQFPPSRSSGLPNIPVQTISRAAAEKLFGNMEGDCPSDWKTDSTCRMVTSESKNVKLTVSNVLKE

>  <binder>
SEQ ID NO 225 (designed binder, not shown: small tags and cut ends) MLPAPKNLVVSRVTEDSARLSWTAPDAAFDSFYIAYAEPRPDGEAILLQVPGSERSYDLTGLKPGTEYSVLIHGVKGGLLSSPLSASFTT

>  <RLU / RLU>
7.38e+06

$$$$
>  <binder>
SEQ ID NO 214 (designed binder, not shown: small tags and cut ends) MLPAPKNLVVSRVTEDSARLSWTAPDAAFDSFYIAYAEPRPDGEAIGLQVPGSERSYDLTGLKPGTEYSVLIHGVKGGLLSSPLCAEFTT

>  <RLU / RLU>
4.3e+06

$$$$
>  <binder>
SEQ ID NO 229 (designed binder, not shown: small tags and cut ends) MLPAPKNLVVSRVTEDSARLSWTAPDAAFDSFYIAYAEPRPDGEAIQLLVPGSERSYDLTGLKPGTEYSVLIHGVKGGLLSSPLVAHFTT

>  <RLU / RLU>
5.77e+06

$$$$
